Every entry's value here was drawn from patent US20050095240A1.

# target_system: drIndy (Drosophila melanogaster)
# Sequence (Q9VVT2 19-590): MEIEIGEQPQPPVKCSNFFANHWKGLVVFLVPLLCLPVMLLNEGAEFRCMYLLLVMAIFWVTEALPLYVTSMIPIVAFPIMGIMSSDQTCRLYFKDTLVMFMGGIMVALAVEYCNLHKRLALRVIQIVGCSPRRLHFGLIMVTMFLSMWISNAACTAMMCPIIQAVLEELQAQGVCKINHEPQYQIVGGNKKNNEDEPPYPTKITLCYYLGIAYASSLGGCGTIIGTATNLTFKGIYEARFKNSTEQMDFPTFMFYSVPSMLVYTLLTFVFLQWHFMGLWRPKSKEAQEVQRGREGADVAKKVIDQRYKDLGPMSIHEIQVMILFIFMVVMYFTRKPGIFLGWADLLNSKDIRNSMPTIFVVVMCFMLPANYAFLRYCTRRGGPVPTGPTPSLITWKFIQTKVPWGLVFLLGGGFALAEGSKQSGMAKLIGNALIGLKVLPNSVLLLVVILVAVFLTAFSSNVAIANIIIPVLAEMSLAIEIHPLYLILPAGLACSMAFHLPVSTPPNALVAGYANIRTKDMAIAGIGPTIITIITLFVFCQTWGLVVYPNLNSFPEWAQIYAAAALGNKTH
# setup_conditions: pH 7.5
For each of the molecules below, state its cDNA-specific [^3H] succinate uptake.
Write the value in fmol/106 cells per min as a bare number.

Requested field: cDNA-specific [^3H] succinate uptake. Item: O=C(O)CC(=O)O [Malonate, malonate]
98.8

So what does the record say about cDNA-specific [^3H] succinate uptake for CC(O)C(=O)O (centres unmarked) [Lactate, lactate] ?
111.2

Please report the recorded cDNA-specific [^3H] succinate uptake for O=C(O)/C=C/C(=O)O [Fumarate] .
4.8

Field request: cDNA-specific [^3H] succinate uptake | item: O=C(O)CCC(=O)C(=O)O [2-Oxoglutarate]
3.0

Any idea what its cDNA-specific [^3H] succinate uptake is? The molecule is O=C(O)/C=C\C(=O)O [Maleate]
123.1

----------
Record form. Attribute: Citrate Uptake, cDNA-specific, %. Fill in for each entry.
# target_system: human NaCT (Homo sapiens, UniProt Q86YT5)
# Sequence (Q86YT5 whole entry): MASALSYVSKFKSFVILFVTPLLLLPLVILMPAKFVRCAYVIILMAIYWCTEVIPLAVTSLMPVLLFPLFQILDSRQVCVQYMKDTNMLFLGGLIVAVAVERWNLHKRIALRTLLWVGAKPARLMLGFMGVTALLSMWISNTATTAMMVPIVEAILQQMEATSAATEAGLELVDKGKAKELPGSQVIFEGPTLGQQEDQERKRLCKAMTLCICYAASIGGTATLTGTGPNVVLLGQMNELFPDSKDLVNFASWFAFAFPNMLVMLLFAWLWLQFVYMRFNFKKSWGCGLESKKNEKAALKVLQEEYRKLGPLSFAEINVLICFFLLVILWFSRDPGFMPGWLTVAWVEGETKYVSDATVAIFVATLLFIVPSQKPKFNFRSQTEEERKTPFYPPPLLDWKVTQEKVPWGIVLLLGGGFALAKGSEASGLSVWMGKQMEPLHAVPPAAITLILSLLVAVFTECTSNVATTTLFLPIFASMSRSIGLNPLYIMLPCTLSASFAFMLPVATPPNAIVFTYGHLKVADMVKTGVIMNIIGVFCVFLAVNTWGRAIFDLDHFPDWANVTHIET
# run_description: Uptake via human NaCT expressed in HRPE cells
# Type: cell-based
# setup_conditions: relative to NaCl
A complete answer gives the number and then names the unit.

Return reported Citrate Uptake, cDNA-specific, %; argument: [Cl-].[Na+] [NaCl]
100%

# get_value(readout='Citrate Uptake, cDNA-specific, %', item= [Cl-].[Li+] [LiCl] )
1%

Looking for the measured Citrate Uptake, cDNA-specific, % of O=C([O-])[C@H](O)[C@@H](O)[C@H](O)[C@H](O)CO.[Na+] [Sodium gluconate] , can you help?
103%

What measured Citrate Uptake, cDNA-specific, % goes with CNC[C@H](O)[C@@H](O)[C@H](O)[C@H](O)CO.Cl [NMDG chloride, N-methyl-D-glucamine chloride] ?
0%

----------
# target_system: hNaDC3 (Homo sapiens, UniProt Q8WWT9)
# Sequence (Q8WWT9 1-602): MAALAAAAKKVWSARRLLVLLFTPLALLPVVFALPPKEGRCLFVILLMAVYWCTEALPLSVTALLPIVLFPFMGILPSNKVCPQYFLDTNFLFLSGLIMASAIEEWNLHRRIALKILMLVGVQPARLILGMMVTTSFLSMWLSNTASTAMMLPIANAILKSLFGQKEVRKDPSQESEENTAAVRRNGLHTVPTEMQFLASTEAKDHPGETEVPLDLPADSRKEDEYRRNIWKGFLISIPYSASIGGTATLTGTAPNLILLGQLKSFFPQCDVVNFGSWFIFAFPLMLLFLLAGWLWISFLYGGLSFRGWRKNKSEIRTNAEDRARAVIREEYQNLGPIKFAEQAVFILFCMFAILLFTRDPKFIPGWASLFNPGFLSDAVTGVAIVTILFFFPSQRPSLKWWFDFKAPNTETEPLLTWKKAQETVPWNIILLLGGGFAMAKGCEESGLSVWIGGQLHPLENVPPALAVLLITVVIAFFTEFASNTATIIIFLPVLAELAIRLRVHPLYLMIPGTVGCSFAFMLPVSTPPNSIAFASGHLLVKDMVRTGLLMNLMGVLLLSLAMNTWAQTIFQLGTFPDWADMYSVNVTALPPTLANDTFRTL
endpoint: pKi
Quick note: pKi values are minus log10 of concentrations in mol/L.

If you can, please state the reported pKi value of O=C(O)CC(O)(CC(=O)O)C(=O)O [Citrate] .
2.68

----------
Please respond with reported [^14C]Citrate uptake, % for every item in the list.
# target_system: rat NaCT (Rattus norvegicus, UniProt Q8CJ44)
# Sequence (Q8CJ44 whole entry): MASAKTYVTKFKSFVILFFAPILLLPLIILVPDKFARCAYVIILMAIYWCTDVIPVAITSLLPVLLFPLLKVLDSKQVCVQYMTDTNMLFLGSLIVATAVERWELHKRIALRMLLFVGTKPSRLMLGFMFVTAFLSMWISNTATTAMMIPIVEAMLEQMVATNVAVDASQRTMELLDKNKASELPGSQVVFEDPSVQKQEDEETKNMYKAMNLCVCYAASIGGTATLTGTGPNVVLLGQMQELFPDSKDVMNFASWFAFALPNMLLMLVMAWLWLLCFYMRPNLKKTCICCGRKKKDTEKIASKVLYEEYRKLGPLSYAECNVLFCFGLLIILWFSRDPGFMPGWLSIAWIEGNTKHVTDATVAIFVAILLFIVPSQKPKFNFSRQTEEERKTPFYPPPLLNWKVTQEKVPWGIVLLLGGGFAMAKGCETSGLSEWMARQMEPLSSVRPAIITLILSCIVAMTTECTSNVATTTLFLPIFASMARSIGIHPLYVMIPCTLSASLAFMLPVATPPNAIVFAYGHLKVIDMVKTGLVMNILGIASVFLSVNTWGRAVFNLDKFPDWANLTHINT
# run_description: Uptake via rat NaCT expressed in HRPE cells
# Format: cell-based
# setup_conditions: [14C]citrate 14 μM; unlabeled compound 2.5 mM; none = 100
Respond with a number, then the unit of measure.

For the record O=C(O)CC(O)(CC(=O)O)C(=O)O [Citrate] , what value of [^14C]Citrate uptake, % is listed for rat NaCT (Rattus norvegicus, UniProt Q8CJ44)?
1%

API: value(readout=[^14C]Citrate uptake, %, system=rat NaCT (Rattus norvegicus, UniProt Q8CJ44)) for record CC(=O)C(=O)O [Pyruvate, pyruvate]
83%

Field: [^14C]Citrate uptake, % (rat NaCT (Rattus norvegicus, UniProt Q8CJ44)). Entry: O=C(O)CCC(=O)O [Succinate, succinate]
5%

Lab note: need [^14C]Citrate uptake, % for O=C(O)CC(O)C(=O)O (stereo not shown) [Malate, malate] on rat NaCT (Rattus norvegicus, UniProt Q8CJ44), anyone have it?
7%
